Please provide measured GI50 for the entries that follow.
Tested on: M19-MEL
Assay: NCI tumour cell line growth inhibition, 48 h
Activity calls are given as the source filed them. No stated cut-off is given here; in the data, active = GI50 up to about 1.1 µM and inactive = higher.

Reference set (5 entries):
CC(C)(C)C1CCC(=O)C(C(O)CC2CC(=O)N(c3ccccc3)C(=O)C2)C1 (stereo unspecified) = > 100 µM (inactive)
O=C(O)CCC1CCc2cccc(O)c2C1=O (stereo unspecified) = > 100 µM (inactive)
O=C(CSc1nnc(Cc2ccccc2)o1)Nc1ccccc1Cl = > 100 µM (inactive)
O=c1cc(-c2ccccc2)c2cc3c(=O)ccoc3cc2o1 = > 100 µM (inactive)
Cc1cc(C=O)c2c(=O)c3c(O)ccc(/C=C/C(C)C)c3oc2c1 = 36.7 µM (inactive)

Lookup: # GI50 lookup, item Cc1nc2ccccc2c(=O)n1Nc1ccc(C(=O)O)cc1
Found: > 100 µM (inactive)

###

Test system: RXF 393
Test: NCI tumour cell line growth inhibition, 48 h
Activity calls are given as the source filed them. No stated cut-off is given here; in the data, active = GI50 up to about 1.1 µM and inactive = higher.
A correct response names exactly one class from true (1) (active), false (0) (inactive)

Please review the entries below; each comes with its answer.
CN(C)C(=S)/N=c1\ss/c(=N/c2ccccc2)n1C = false (0)
O=C(NN=C1NCCN1)c1ccco1 = false (0)
C=C1C(=O)O[C@H]2/C=C(/C)C3=CC(=O)[C@@](C)(C[C@@H](OC(=O)/C(C)=C\C)C12)O3 (stereo not given in full) = true (1)
CC(=O)[C@@H](C)C(=O)N1C(=O)OC[C@@]12[C@@H]1CC[C@@H](C1)C2(C)C = false (0)

Consider the additional compound presented here.
Lookup: Hello, I am checking results. What call was entered for COC(=O)C1CC(C=[N+](C)C)=C(SC)N1C(=O)OCc1ccccc1 (stereo not given) ?
Found: false (0)

###

Tested on: HT-29
Experiment: NCI tumour cell line growth inhibition, 48 h
The source made the active and inactive calls. Cut-off read from the data, not from the text of the source: active = GI50 up to about 1.1 µM and inactive = higher.
Endpoint name: GI50

Reference set (5 entries):
CCC(C)(C)NS(=O)(=O)c1ccccc1 = > 100 µM (inactive)
O=C(Nc1ccc(C(F)(F)F)cc1[N+](=O)[O-])C(=O)C(C(=O)c1ccc2ccccc2c1)C1OC(=O)c2ccccc21 (stereo unspecified) = 9.08 µM (inactive)
C=C1CC2(OC1=O)c1ccccc1CCc1ccccc12 = 1.84 µM (inactive)
CCCCCCCCCCCCCC/C(C(=O)O)=C(\C)C(=O)O = > 100 µM (inactive)
CCN(c1ccccc1)[C@H]1C(=O)N(c2ccc([N+](=O)[O-])cc2)[C@H]1c1ccc(OC)cc1 = > 100 µM (inactive)

Lookup: # GI50 lookup, item Cc1ccccc1NC(=N)Nc1ccccc1C
Found: > 100 µM (inactive)

###

Test system: M19-MEL
Experiment: NCI tumour cell line growth inhibition, 48 h
The source made the active and inactive calls. Cut-off read from the data, not from the text of the source: active = GI50 up to about 1.1 µM and inactive = higher.
Please provide measured GI50 for the entries that follow.

Reference set (3 entries):
CCOC(=O)NC1=C(N2CC2)C(=O)C(NC(=O)OCC)=C(N2CC2)C1=O = 5.38 µM (inactive)
CC(=O)C1Cn2c(=O)c3cc4ccccc4cc3c(=O)n2C=C1C (stereo not given) = > 100 µM (inactive)
CCCCCCCC(CC(=O)NC(CO)C(=O)NC(CO)CC(C)C)OC(=O)CC(CCCCCCC)OC(=O)CC(CCCCCCC)OC1OC(C)C(O)C(OC2OC(C)C(O)C(O)C2O)C1O (stereo not given) = 10.4 µM (inactive)

// each listed molecule needs a value for GI50
1. N#CCCN(c1ccc(C=O)cc1)S(=O)(=O)c1ccccc1
2. O=C1NC(=O)C2C3C=CC(C12)C1C2C(=O)NC(=O)C2C31 (stereo not given)

Found:
1. > 100 µM (inactive)
2. 177 µM (inactive)

###

Test system: 786-0
Test: NCI tumour cell line growth inhibition, 48 h
Calls of active or inactive are those of the source. Rule as the data show it: active = GI50 up to about 1.1 µM and inactive = higher.
A correct response names exactly one class from 1.0 (active), 0.0 (inactive)

CC(C)CCC[C@@H](C)C1CCC2[C@@H]3CC=C4C[C@@H](C(=O)NCCN(C)C)CC[C@]4(C)C3CC[C@@]21C (stereo partly specified) = 0.0

Lookup: Hello, I am checking results. What call was entered for CN(C)C(=S)/N=c1\ss/c(=N/c2ccccc2)n1C ?
Found: 0.0

Lookup: Another: C=C1c2nc3ccccc3n2C=C(c2ccccc2)N1c1ccc(C)cc1
Found: 0.0

Lookup: Another: CCOC(=O)CSc1nnc2cc(CN3CCCC3)c(-c3ccc(Cl)cc3)nn12
Found: 0.0

Lookup: Another: Cc1c2ccccc2c(C2C3C(=O)N(c4cccc5ccccc45)C(=O)C3ON2Cc2ccc(CC(N)=O)cc2)c2ccccc12 (stereo unspecified)
Found: 0.0

Lookup: Another: NC1=NN(c2ccccc2)C(=O)C1/C(=N\NC(=O)c1cc2ccccc2cc1O)C(=O)Nc1cccc(C(F)(F)F)c1 (stereo unspecified)
Found: 0.0

Lookup: Another: COc1ccc(CN(Cc2ccc(OC)cc2)C(=O)CC2(O)C=CCC2)cc1 (stereo unspecified)
Found: 0.0

Lookup: Another: Oc1ccc[nH]c1=[Se]
Found: 0.0

Lookup: Another: Cc1nnc(Sc2nc(C#N)c(C#N)nc2Sc2nnc(C)s2)s1
Found: 0.0

Lookup: Another: CCC1c2[nH]c3ccccc3c2C[C@H]2C(=O)NC(Cc3c[nH]c4ccccc34)C(=O)N12 (stereo partly specified)
Found: 0.0

Lookup: Another: C=CCn1c2c(c3ccccc3c1=O)C(=O)c1ccccc1-2
Found: 0.0

Lookup: Another: COc1cccc2c(Nc3ccc(S(=O)(=O)Nc4ncccn4)cc3)c3ccc([N+](=O)[O-])cc3nc12
Found: 0.0

Lookup: Another: Cc1ccc(NC(=O)CC/C(CC(=O)c2ccc(Cl)cc2)=N\NC(=O)C(=O)NN)cc1C
Found: 0.0

Lookup: Another: C=CCNC1=C2C[C@@H](C)C[C@@H](OC)[C@H](OC(=O)CN)[C@H](C)/C=C(\C)[C@@H](OC(N)=O)[C@H](OC)/C=C\C=C(/C)C(=O)NC(=CC1=O)C2=O
Found: 0.0

Lookup: Another: COc1cc2c(cc1OCCN1C(=O)c3cccc4cccc(c34)C1=O)N=C[C@@H]1CCCN1C2=O
Found: 0.0

Lookup: Another: Oc1nc(S)nc2c1CN(CCCN1CCOCC1)CN2
Found: 0.0

Lookup: Another: COc1cc(/C=C2\N=C(c3ccccc3)N(c3ccc4c(c3)Sc3cc(N5C(=O)/C(=C/c6cc(OC)c(OC)c(OC)c6)N=C5c5ccccc5)ccc3N4)C2=O)cc(OC)c1OC
Found: 0.0

###

Test system: SK-MEL-28
Assay: NCI tumour cell line growth inhibition, 48 h
Calls of active or inactive are those of the source. No stated cut-off is given here; in the data, active = GI50 up to about 1.1 µM and inactive = higher.
Endpoint name: GI50

Reference set (2 entries):
Cn1ccnc1Sc1ccc(/C=N/c2ccc3nc(SCC(=O)NC4CCCCC4)sc3c2)cc1[N+](=O)[O-] = > 100 µM (inactive)
CC(Cc1ccccc1)Nc1ncnc2c1ncn2C1OC(CO)CC1O (stereo not given) = > 100 µM (inactive)

// each listed molecule needs a value for GI50
1. Cc1cc2nc3c(C(OC4OC(CO)C(O)C(O)C4O)C(O)CO)nn(-c4ccccc4)c3nc2cc1C (stereo not given)
2. CCOC(=O)C1C(C)C2(C#N)C(=N)OC1(C)C2(C#N)C#N (stereo not given)
3. CCOC1CC(C)N(C(=O)c2ccccc2)O1 (stereo not given)

Found:
1: > 100 µM (inactive); 2: 28.1 µM (inactive); 3: > 100 µM (inactive)

###

Please provide measured GI50 for the entries that follow.
Tested on: UACC-62
Assay: NCI tumour cell line growth inhibition, 48 h
Active and inactive are the calls of the source. Cut-off read from the data, not from the text of the source: active = GI50 up to about 1.1 µM and inactive = higher.

CC1(c2ccccc2)CCN(C2CC2)CO1 (stereo not given) = 18.1 µM (inactive)
COC(=O)Cc1c([C@@]2(C)CCCC(C)(C)C2)ccc2c1C(=O)OC2 = 10.6 µM (inactive)
Cc1nc(=O)[nH]c(NCCNCCO)c1C(=O)Nc1cccc2cc3ccccc3cc12 = > 100 µM (inactive)
CC(CO)C1C[C@H](O)[C@@]2(C)CC(=O)C=C(CO)[C@@H]2C1 (stereo not given in full) = > 100 µM (inactive)

--- query ---
Lookup: # query: GI50 | item CCOC(=O)NC1=C(N2CC2)C(=O)C(NC(=O)OCC)=C(N2CC2)C1=O | system: UACC-62
Found: 0.489 µM (active)

###

System: SK-MEL-2
Experiment: NCI tumour cell line growth inhibition, 48 h
Calls of active or inactive are those of the source. Rule as the data show it: active = GI50 up to about 1.1 µM and inactive = higher.
A correct response names exactly one class from active, inactive

Please review the entries below; each comes with its answer.
CN(C1=NCCO1)c1cccc2c1CCCC2 = inactive
O=C1CSC(c2cccc(Oc3ccccc3)c2)N1c1cccc(Cl)c1Cl (configuration not stated) = inactive
Nc1nc(O)c2ncn(C3C=CC(CO)O3)c2n1 (configuration not stated) = inactive

Lookup: Hello, I am checking results. What call was entered for NC(=S)N/N=C1\C(=O)C=C(Nc2ccc(Cl)cc2Cl)c2ccccc21 ?
Found: inactive

Lookup: Another: c1cnc2c(c1)ccc1cccnc12
Found: inactive

Lookup: Another: COc1cc(O)c2c(=O)cc(C3(O)C=CC(=O)C=C3)oc2c1
Found: active

Lookup: Another: CC1=NN=C(N)NC1=CC(Sc1ccc(Cl)cc1)c1c(O)ccc2ccccc12 (configuration not stated)
Found: inactive

Lookup: Another: COc1cc2c(cc1C[N+](C)(C)CSc1ccccc1)-c1ccccc1CC2
Found: inactive

Lookup: Another: COc1cc(/C=C/C(=O)c2ccc(O)c(OC)c2)ccc1O
Found: inactive

Lookup: Another: Cn1c(C(C)(C)OC(=O)Oc2ccccc2)cnc1[N+](=O)[O-]
Found: inactive

Lookup: Another: Cc1c2ccccc2c(C2C3C(=O)N(c4cccc5ccccc45)C(=O)C3ON2Cc2ccc(CC(N)=O)cc2)c2ccccc12 (configuration not stated)
Found: inactive

Lookup: Another: COc1ccc(N2C(=O)[C@H]3CC(C)c4c([nH]c5ccccc45)[C@H]3C2=O)cc1 (some centres not stated)
Found: inactive

Lookup: Another: Cc1ccccc1NC(=N)Nc1ccccc1C
Found: inactive

Lookup: Another: COc1cc2c(cc1OCCN1C(=O)c3cccc4cccc(c34)C1=O)N=C[C@@H]1CCCN1C2=O
Found: inactive

Lookup: Another: COc1ccc(NC(=O)C(=O)C2NC(=S)NC2=O)c(OC)c1 (configuration not stated)
Found: inactive

Lookup: Another: COc1cc2c(cc1O)CC[n+]1cc3c(OC)c(OC)ccc3cc1-2
Found: inactive

Lookup: Another: Cc1cc(N(CCC#N)CCC#N)ccc1C(/N=N\c1ccc([N+](=O)[O-])cc1)=N\NC(=O)c1cc(Cl)ccc1O
Found: inactive

Lookup: Another: CN(C)N1C(=C(C#N)C#N)C(c2ccccc2)CC1C#N (configuration not stated)
Found: inactive
